System: Enterococcus faecalis
assay.method.text: Minimum inhibitory concentration (MIC) against Streptococcus faecalis by 2-fold microdilution technique.
Type: functional
assay.context: Enterococcus faecalis; read-out: MIC
So basically: is MIC under 2 µg/mL? Then Yes. Not under? Then No.

Known results for compounds:
{"columns": ["compound", "category"],
 "data": [
  ["N[C@@H](C(=O)N[C@@H]1C(=O)N2C(C(=O)O)=C(/C=C/C(F)(F)F)OC[C@H]12)c1ccc(O)cc1", "Yes"],
  ["N[C@@H](C(=O)N[C@@H]1C(=O)N2C(C(=O)O)=C(C3CC3)OC[C@H]12)c1ccc(O)cc1", "Yes"],
  ["C=CCC1=C(C(=O)O)N2C(=O)[C@@H](NC(=O)[C@H](N)c3ccc(O)cc3)[C@H]2SC1", "No"],
  ["C/C=C\\C1=C(C(=O)O)N2C(=O)[C@@H](NC(=O)[C@H](N)c3ccc(O)cc3)[C@H]2CO1 (relative stereo)", "Yes"]
]}

For this compound, is MIC lower than 2 µg/mL? CC1=C(C(=O)O)N2C(=O)[C@@H](NC(=O)[C@H](N)c3ccc(O)cc3)[C@H]2CO1
No

---

Test system: Staphylococcus aureus
assay.method.text: Minimum inhibitory concentration (MIC) against Staphylococcus aureus by 2-fold microdilution technique.
Format: functional
assay.context: Staphylococcus aureus; read-out: MIC
measured.endpoint: MIC (µg/mL)
Give the value in µg/mL but do not write µg/mL after it.

{"columns": ["compound", "measured.endpoint", "assay.result"],
 "data": [
  ["N[C@@H](C(=O)N[C@@H]1C(=O)N2C(C(=O)O)=C(/C=C\\C(F)(F)F)OC[C@H]12)c1ccc(O)cc1 (relative stereo)", "MIC", 0.5]
]}

Query: MIC; subject: C=CC1=C(C(=O)O)N2C(=O)[C@@H](NC(=O)[C@H](N)c3ccc(O)cc3)[C@H]2CO1
0.13

Query: MIC; subject: N[C@@H](C(=O)N[C@@H]1C(=O)N2C(C(=O)O)=C(Cl)CS[C@H]12)c1ccccc1.O
0.25

Query: MIC; subject: C=CC1=C(C(=O)O)N2C(=O)[C@@H](NC(=O)[C@H](N)c3ccc(O)cc3)[C@H]2SC1
0.25

Query: MIC; subject: N[C@@H](C(=O)N[C@@H]1C(=O)N2C(C(=O)O)=C(/C=C/C(F)(F)F)OC[C@H]12)c1ccc(O)cc1
0.5

Query: MIC; subject: N[C@@H](C(=O)N[C@@H]1C(=O)N2C(C(=O)O)=C(C3CC3)OC[C@H]12)c1ccc(O)cc1
0.25

Query: MIC; subject: C/C=C\C1=C(C(=O)O)N2C(=O)[C@@H](NC(=O)[C@H](N)c3ccc(O)cc3)[C@H]2CO1 (relative stereo)
0.25

Query: MIC; subject: CCCC1=C(C(=O)O)N2C(=O)[C@@H](NC(=O)[C@H](N)c3ccc(O)cc3)[C@H]2CO1
0.06

---

assay.method.text: Half life was measured.
Type: ADME
measured.endpoint: half-life
Provide the measurement as a number trailed by its unit.

Reference set, count: 6
{"columns": ["compound", "half-life"],
 "data": [
  ["C=CCC1=C(C(=O)O)N2C(=O)[C@@H](NC(=O)[C@H](N)c3ccc(O)cc3)[C@H]2CO1", "32 min"],
  ["C=CC1=C(C(=O)O)N2C(=O)[C@@H](NC(=O)[C@H](N)c3ccc(O)cc3)[C@H]2SC1", "29 min"],
  ["C/C=C\\C1=C(C(=O)O)N2C(=O)[C@@H](NC(=O)[C@H](N)c3ccc(O)cc3)[C@H]2CO1 (relative stereo)", "52 min"],
  ["C/C=C/C1=C(C(=O)O)N2C(=O)[C@@H](NC(=O)[C@H](N)c3ccc(O)cc3)[C@H]2CO1 (relative stereo)", "110 min"],
  ["C=CCC1=C(C(=O)O)N2C(=O)[C@@H](NC(=O)[C@H](N)c3ccc(O)cc3)[C@H]2SC1", "34 min"],
  ["C=CC1=C(C(=O)O)N2C(=O)[C@@H](NC(=O)[C@H](N)c3ccc(O)cc3)[C@H]2CO1", "39 min"]
]}

# evaluate next
Query: half-life; subject: C/C=C/C1=C(C(=O)O)N2C(=O)[C@@H](NC(=O)[C@H](N)c3ccc(O)cc3)[C@H]2SC1.O (relative stereo; 56) [CEFPROZIL, (E)-]
29 min
